The measured values listed here are drawn from PubChem BioAssay AID248.

- Test system: L1210 leukemia ip in BDF1 mice, survival T/C
- experiment.summary: NCI In Vivo Anticancer Drug Screen. Data for tumor model L1210 Leukemia (intraperitoneal) in B6D2F1 (BDF1) mice
- run.conditions: endpoint: mean survival time; dose: 400.0 mg/kg/injection; schedule: Q01DX001 (ip); vehicle: saline with Tween-80; higher = longer survival
Toxic doses and inconclusive results are not listed.
measured.endpoint: T/C

// below: answered molecules
[
  {
    "molecule": "CCCCCCCCCCCC(=O)N1CCCCC1",
    "T/C": "89 % of control"
  },
  {
    "molecule": "O=C(c1ccccc1)C(O)(CC(c1ccccc1)[P+](c1ccccc1)(c1ccccc1)c1ccccc1)c1ccccc1 (centres undefined)",
    "T/C": "87 % of control"
  },
  {
    "molecule": "COC(=O)c1ccc(N(C)Cc2cnc3nc(N)nc(SCc4ccccc4)c3n2)cc1",
    "T/C": "101 % of control"
  },
  {
    "molecule": "O=C(Nc1ccccc1)Nc1ccc([N+](=O)[O-])cc1[N+](=O)[O-]",
    "T/C": "98 % of control"
  },
  {
    "molecule": "CCCP(=O)(CCC)C1CCCCC1",
    "T/C": "86 % of control"
  },
  {
    "molecule": "CCCCCCCCCCCCNC(C1=C(O)c2ccccc2C(=O)C1=O)c1ccccc1 (centres undefined)",
    "T/C": "95 % of control"
  }
]

Here's the next entry for you.
## Input # input molecule: `Nc1ncc(CCCCc2ccccc2)c(=O)[nH]1` ; wanted: its T/C
## Output 98 % of control

###

- Tested on: L1210 leukemia ip in BDF1 mice, survival T/C
- experiment.summary: NCI In Vivo Anticancer Drug Screen. Data for tumor model L1210 Leukemia (intraperitoneal) in B6D2F1 (BDF1) mice
- run.conditions: endpoint: mean survival time; dose: 400.0 mg/kg/injection; schedule: Q01DX001 (ip); vehicle: saline; higher = longer survival
Inconclusive results and toxic doses are left out.
measured.endpoint: T/C

// below: answered molecules
[
  {
    "molecule": "CN(CCO)C(c1ccccc1)c1ccccc1",
    "observed.measurement": "103 % of control"
  },
  {
    "molecule": "c1ccc(C(NC(c2ccccc2)c2ccccc2)c2ccccc2)cc1",
    "observed.measurement": "97 % of control"
  },
  {
    "molecule": "CC(C)CCC[C@@H](C)[C@H]1CC[C@H]2[C@@H]3CC=C4C[C@@H](O)CC[C@]4(C)[C@H]3CC[C@]12C",
    "observed.measurement": "92 % of control"
  },
  {
    "molecule": "Cc1c(C[N+](C)(C)C)c(=O)n(-c2ccccc2)n1C",
    "observed.measurement": "98 % of control"
  },
  {
    "molecule": "CCCN(CCC)S(=O)(=O)c1ccc(NC(=O)OC(c2ccccc2)(c2ccccc2)c2ccccc2)cc1",
    "observed.measurement": "94 % of control"
  }
]

## Input Lab note: need T/C for `CC(=O)N1C(=O)/C(=C\c2cc3c(cc2Br)OCO3)c2cc3c(cc21)OCO3` on L1210 leukemia ip in BDF1 mice, survival T/C, anyone have it?
## Output 106 % of control

## Input Lab note: need T/C for Cc1cccc(C(Cc2ccc(N3C(N)=NC(N)=NC3(C)C)cc2)C(=O)Nc2ccc(S(=O)(=O)F)cc2)c1 (stereo not drawn) on L1210 leukemia ip in BDF1 mice, survival T/C, anyone have it?
## Output 98 % of control

## Input Lab note: need T/C for `O=c1cc(CO)[nH]c(=O)[nH]1` on L1210 leukemia ip in BDF1 mice, survival T/C, anyone have it?
## Output 98 % of control

###

- Test system: L1210 leukemia ip in BDF1 mice, survival T/C
- experiment.summary: NCI In Vivo Anticancer Drug Screen. Data for tumor model L1210 Leukemia (intraperitoneal) in B6D2F1 (BDF1) mice
- run.conditions: endpoint: mean survival time; dose: 75.0 mg/kg/injection; schedule: Q01DX001 (ip); vehicle: other
Inconclusive results and toxic doses are left out. No stated cut-off is given here; in the data, active means T/C of 150% or more; inactive means T/C below 125%.
Hi there, use one of these labels in your reply, thanks! active, inactive

[
  {
    "molecule": "C=CCN(CC=C)CCNc1cc(C)nc(/N=C(\\N)Nc2ccc(Cl)c(Cl)c2)n1",
    "class.assignment": "inactive"
  },
  {
    "molecule": "O=C1C(O)=C(c2ccc(Br)cc2)C(=O)C(O)=C1c1ccc(Br)cc1",
    "class.assignment": "inactive"
  },
  {
    "molecule": "CC1(C)CCC(NC(=O)N(CCF)N=O)CC1",
    "class.assignment": "active"
  },
  {
    "molecule": "CC(C)C1=CC23CCC4C(C)(C(=O)O)CCCC4(C)C2CC1C1(Cl)C(Cl)=C(Cl)C(Cl)(Cl)C31Cl (stereo not drawn)",
    "class.assignment": "inactive"
  },
  {
    "molecule": "C=C(C)C1CC(=O)C2(C)OC2C1 (stereo not drawn)",
    "class.assignment": "inactive"
  },
  {
    "molecule": "CN(C)c1ccc(/C=C/C=N/N=C/c2ccccc2O)cc1",
    "class.assignment": "inactive"
  },
  {
    "molecule": "OC(C[n+]1ccccc1)c1c[nH]c2ccccc12 (stereo not drawn)",
    "class.assignment": "inactive"
  }
]

Now for a further molecule.
## Input I'd appreciate the recorded outcome for `CCOC(=O)C(C#N)=C(C)C` from this test.
## Output inactive

###

- Tested on: L1210 leukemia ip in BDF1 mice, survival T/C
- experiment.summary: NCI In Vivo Anticancer Drug Screen. Data for tumor model L1210 Leukemia (intraperitoneal) in B6D2F1 (BDF1) mice
- run.conditions: endpoint: mean survival time; dose: 300.0 mg/kg/injection; schedule: Q01DX001 (ip); vehicle: carboxymethylcellulose (CMC); higher = longer survival
Inconclusive results and toxic doses are left out.
Let's look at some molecules and their measured T/C.

[
  {
    "molecule": "C=CCNC(=S)Nc1ncn[nH]1",
    "target": "L1210 leukemia ip in BDF1 mice, survival T/C",
    "measured.endpoint": "T/C",
    "observed.measurement": "90 % of control"
  },
  {
    "molecule": "CCCCCCC[n+]1ccc(C(=O)c2ccccc2)cc1",
    "target": "L1210 leukemia ip in BDF1 mice, survival T/C",
    "measured.endpoint": "T/C",
    "observed.measurement": "105 % of control"
  },
  {
    "molecule": "COc1ccc(C(SCC(NC(=O)OCc2ccccc2)C(=O)O)c2ccc(OC)cc2)cc1 (centres undefined)",
    "target": "L1210 leukemia ip in BDF1 mice, survival T/C",
    "measured.endpoint": "T/C",
    "observed.measurement": "89 % of control"
  }
]

Here's the next entry for you.
## Input # input molecule: `O=NN(CCCl)C(=O)Nc1ccc(Cl)c(Cl)c1` ; wanted: its T/C
## Output 89 % of control

###

Let's look at some compounds and their measured T/C.
- System: L1210 leukemia ip in BDF1 mice, survival T/C
- experiment.summary: NCI In Vivo Anticancer Drug Screen. Data for tumor model L1210 Leukemia (intraperitoneal) in B6D2F1 (BDF1) mice
- run.conditions: endpoint: mean survival time; dose: 100.0 mg/kg/injection; schedule: Q04DX003 (ip); vehicle: saline with Tween-80; higher = longer survival
Toxic doses and inconclusive results are not listed.

[
  {
    "compound": "C=C(C)c1cc2ccccc2cc1O",
    "target": "L1210 leukemia ip in BDF1 mice, survival T/C",
    "T/C": "90 % of control"
  },
  {
    "compound": "CCCNC(=O)Nc1cccc(Cl)c1C",
    "target": "L1210 leukemia ip in BDF1 mice, survival T/C",
    "T/C": "101 % of control"
  },
  {
    "compound": "CC(CO)(CI)[n+]1ccccc1 (centres undefined)",
    "target": "L1210 leukemia ip in BDF1 mice, survival T/C",
    "T/C": "106 % of control"
  },
  {
    "compound": "CC(C)C(Br)C(=O)NCC(=O)O (centres undefined)",
    "target": "L1210 leukemia ip in BDF1 mice, survival T/C",
    "T/C": "102 % of control"
  },
  {
    "compound": "O=[N+]([O-])c1cccc(SNc2cccc(Cl)c2)c1",
    "target": "L1210 leukemia ip in BDF1 mice, survival T/C",
    "T/C": "93 % of control"
  },
  {
    "compound": "CCSC(=O)N1c2ccc(OC)cc2C=CC1C#N (centres undefined)",
    "target": "L1210 leukemia ip in BDF1 mice, survival T/C",
    "T/C": "101 % of control"
  },
  {
    "compound": "S=C1NC2(CCCCC2)C2=C(CCCC2)S1",
    "target": "L1210 leukemia ip in BDF1 mice, survival T/C",
    "T/C": "100 % of control"
  },
  {
    "compound": "O=C(O)C(c1cccs1)c1cccs1",
    "target": "L1210 leukemia ip in BDF1 mice, survival T/C",
    "T/C": "102 % of control"
  }
]

## Input Lab note: need T/C for `Cc1ccc(C)c(-n2nnc3ccccc3c2=O)c1` on L1210 leukemia ip in BDF1 mice, survival T/C, anyone have it?
## Output 95 % of control
